Data origin, for the record: PubChem BioAssay (NCATS)

assay: Quantitative High-Throughput drug screen in 47 multiple myeloma cell lines against the NCATS MIPE library collection: MOLP8_DSMZ cell viability assay (AID 1918977); conditions: MOLP8 myeloma viability, CellTiter-Glo ATP luminescence, 48 h; series mostly up to 45.8 µM; also: nearly all actives have a fitted effect of over 45% in size; also: potency is read from the fitted curve at half-maximal effect
Inconclusive results are not listed. Calls of active or inactive are those of the source. Calls follow the shape of the dose curve; as a rule, active = well fitted cell-killing curve with a large enough effect; inconclusive = small, poorly fitted or top-dose-only effect, or effect the other way; inactive = no such curve, though single readings can be large or run the other way.
recorded.endpoint: Potency

Before answering, review these 6 worked examples.
molecule	recorded.endpoint	value
O=C(CO)N1CCC(c2[nH]nc(-c3ccc(Cl)cc3)c2-c2ccncn2)CC1	Potency	inactive
O=C(Nc1cccc(Cl)c1)Nc1ncc(CCNc2ncnc3ccsc23)s1	Potency	3.72 µM (active)
CCN(CCO)CCCOc1ccc2c(Nc3cc(CC(=O)Nc4cccc(F)c4)[nH]n3)ncnc2c1	Potency	inactive
C[C@@H]1O[C@@H](O[C@H]2CC[C@@]3(C)[C@H](CC[C@@H]4[C@H]3C[C@@H](O)[C@]3(C)[C@@H](C5=CC(=O)OC5)CC[C@]43O)C2)C[C@H](O)[C@@H]1O[C@H]1C[C@H](O)[C@H](O[C@H]2C[C@H](O)[C@@H](O)[C@@H](C)O2)[C@H](C)O1 (stereo in doubt)	Potency	0.152 µM (active)
CC(C)[C@H](O)C(=O)N[C@@H](C)C(=O)N[C@@H]1C(=O)N(C)CCc2ccccc21	Potency	0.0053 µM (active)
COc1cc2nc(-c3cc(F)ccc3O)nc(N[C@@H]3CNC[C@@H]3C(C)(C)O)c2cc1OC	Potency	5.9 µM (active)

Go through the list and state Potency for each entry.
1. CCCCCCOC(=O)N=C(N)c1ccc(NCc2nc3cc(C(=O)N(CCC(=O)OCC)c4ccccn4)ccc3n2C)cc1
2. COc1cc(C=CC(=O)O)ccc1O
3. CN1CC(=O)N2C(Cc3c([nH]c4ccccc34)[C@H]2c2ccc3c(c2)OCO3)C1=O (some centres not stated)
4. N#CC(c1ccc(Cl)cc1)c1c(Cl)cc(-n2ncc(=O)[nH]c2=O)cc1Cl (configuration not stated)

Response:
1: 20.9 µM (active); 2: inactive; 3: inactive; 4: inactive

# batch: return Potency for each of the 7 molecules below
1. CC(C)=CCCC(C)=CCCC(C)=CCCC(C)=CCCC(C)=CCCC(C)=CCCC(C)=CCCC(C)=CCCC(C)=CCO
2. COc1ccc(C=CC(=O)Nc2ccccc2C(=O)O)cc1OC
3. CCc1cccc(CC)c1NC(=O)N1Cc2[nH]nc(NC(=O)c3ccc(N4CCN(C)CC4)cc3)c2C1
4. Cc1c(C(=O)Nc2ccc(N3C[C@@H](C)O[C@@H](C)C3)nc2)cccc1-c1ccc(OC(F)(F)F)cc1
5. CCC(C)SSc1ncc[nH]1 (configuration not stated)
6. OC[C@H]1O[C@@H](Oc2ccc(O)cc2)[C@H](O)[C@@H](O)[C@H]1O
7. COc1ccc(-c2cc(=O)c3c(O)cc(O[C@@H]4O[C@H](CO[C@@H]5O[C@@H](C)[C@H](O)[C@@H](O)[C@@H]5O)[C@@H](O)[C@H](O)[C@@H]4O)cc3o2)cc1O

Response:
1. 9.35 µM (active)
2. inactive
3. 16.6 µM (active)
4. 13.2 µM (active)
5. 4.18 µM (active)
6. inactive
7. inactive
